Procedure Summary: Metabolic stability assay, CD-1 mouse microsomes
Type: in vitro ADME
Assay Context: both, CD-1, mouse, microsomes, 1 h, 10 µM
Property Name: Metabolic Stability 60 min mouse [% remain.] (% remain.)
One number for each entry, in % remain..

- CN1CCC[C@H](N)C(=O)N2C[C@@H](OCc3ccccc3)C[C@H]2COc2cccc(c2)C1=O [Ex. 568]: 60
- CN1CC(=O)N2C[C@H](NC(=O)Cc3ccc4ccccc4c3)C[C@H]2COc2ccc(cc2)C(=O)N(C)[C@H](C(=O)N2CCCC2)CCC1=O [Ex. 264]: 32
- CN1CCC[C@H](N)C(=O)N2C[C@@H](Oc3ccccc3)C[C@H]2COc2cccc(c2)C1=O [Ex. 561]: 79
- CN1C(=O)c2cccc(c2)OC[C@@H]2C[C@H](NC(=O)CCc3ccncc3)CN2C(=O)COC[C@H]1C(=O)NCc1ccc2ccccc2c1 [Ex. 372]: 73

// batch mode: one Metabolic Stability 60 min mouse [% remain.] value per listed entry
1. CCCCCCCCCC(=O)N[C@H]1CN(C)C(=O)c2cccc(c2)OC[C@@H]2C[C@H](NC(=O)Cc3c[nH]c4ccccc34)CN2C(=O)CN(C)C1=O [Ex. 213]
2. CN(C)CCNC(=O)[C@@H]1CCC(=O)N(C)CC(=O)N2C[C@@H](NC(=O)Cc3cccc4ccccc34)C[C@H]2COc2ccc(F)cc2C(=O)N1C [Ex. 49]
3. CN1CCC(NC(=O)OCc2ccccc2)C(=O)N2CC(NC(=O)Cc3ccc4ccccc4c3)CC2COc2cccc(c2)C1=O (stereo not shown) [Ex. 168]

4
83
21

====

Procedure Summary: Metabolic stability assay, human microsomes
Type: in vitro ADME
Assay Context: both, human, microsomes, 1 h, 10 µM
Exercise: for every item that follows, state its recorded Metabolic Stability 60 min hum [% remain.].
Answers are plain numbers, in % remain..

• CN1CC(=O)N2C[C@H](NC(=O)CCC(=O)O)C[C@H]2COc2ccc(cc2)C(=O)N(C)[C@H](C(=O)NCc2ccncc2)CCC1=O [Ex. 267] = 99
• CN1CCN([C@H]2CCCN(C)C(=O)c3cccc(c3)OC[C@@H]3C[C@H](O)CN3C2=O)CC1 [Ex. 581] = 98
• CN1CC(=O)N2C[C@@H](NC(=O)OC(C)(C)C)C[C@H]2COc2ccc(F)cc2C(=O)N(C)[C@H](C(=O)NCCc2c[nH]c3ccccc23)CCC1=O [Ex. 30] = 2
• CCCCC(=O)N[C@H]1C[C@H]2COc3ccc(F)cc3C(=O)N(C)[C@@H](C(=O)NCc3ccc4ccccc4c3)CCC(=O)N(C)CC(=O)N2C1 [Ex. 103] = 22
• CN1CCC[C@H](N)C(=O)N2C[C@@H](OCc3ccccc3)C[C@H]2COc2cccc(c2)C1=O [Ex. 568] = 53

Lab note: next compound to report on.
Can you share its Metabolic Stability 60 min hum [% remain.]? I mean this compound: CC(=O)N[C@H]1CN(C)C(=O)c2cccc(c2)OC[C@@H]2C[C@H](NC(=O)CN(C)C)CN2C(=O)CN(C)C1=O [Ex. 208] 84

====

Procedure Summary: Metabolic stability assay, human microsomes
Type: in vitro ADME
Assay Context: both, human, microsomes, 1 h, 10 µM
Property Name: Metabolic Stability 60 min hum [% remain.] (% remain.)
Answers are plain numbers, in % remain..

Guide cases for Metabolic Stability 60 min hum [% remain.], answers given:
* CN(C)CCNC(=O)[C@@H]1COCC(=O)N2C[C@@H](NC(=O)Cc3ccc4ccccc4c3)C[C@H]2COc2cccc(c2)C(=O)N1C | 61
* CCN(CC)[C@H]1C[C@H]2COc3ccc(F)cc3C(=O)N(C)[C@H](C(=O)N3CCCC3)CCC(=O)N(C)CC(=O)N2C1 | 100
* CN1CC(=O)N2C[C@@H](NC(=O)Cc3c[nH]c4ccccc34)C[C@H]2COc2ccc(F)cc2C(=O)N(C)[C@H](C(=O)NCCc2c[nH]c3ccccc23)CCC1=O | 7
* CCCCC(=O)N[C@H]1C[C@H]2COc3cccc(c3)C(=O)N(C)CC[C@H](N)C(=O)N2C1 | 58
* CN1CCC[C@H](N)C(=O)N2C[C@@H](OCc3ccc(-c4cncnc4)cc3)C[C@H]2COc2cccc(c2)C1=O | 41

// batch mode: one Metabolic Stability 60 min hum [% remain.] value per listed entry
1. CO[C@H]1C[C@H]2COc3cccc(c3)C(=O)N(C)CCC[C@H](NC(=O)CC(C)(C)C)C(=O)N2C1
2. COCCNC(=O)[C@@H]1COCC(=O)N2C[C@@H](N3CCN(C)CC3)C[C@H]2COc2cccc(c2)C(=O)N1C

1. 49
2. 72

// batch mode: one Metabolic Stability 60 min hum [% remain.] value per listed entry
1. CN1CC(=O)N2C[C@H](NC(=O)CCc3ccncc3)C[C@H]2COc2ccc(cc2)C(=O)N(C)[C@H](C(=O)NCc2ccc3ccccc3c2)CCC1=O
2. CCCCCCCCCC(=O)N[C@H]1CN(C)C(=O)c2cccc(c2)OC[C@@H]2C[C@H](NC(=O)Cc3c[nH]c4ccccc34)CN2C(=O)CN(C)C1=O

[19, 0]

// batch mode: one Metabolic Stability 60 min hum [% remain.] value per listed entry
1. CN1CCC[C@H](N)C(=O)N2C[C@@H](Oc3ccccc3)C[C@H]2COc2cccc(c2)C1=O
2. CN1CCC[C@H](NC(=O)Cc2ccccc2)C(=O)N[C@H]2CN[C@H](COc3ccc(F)cc3C1=O)C2
3. CCCCCCCCCC(=O)N[C@H]1C[C@H]2COc3ccc(F)cc3C(=O)N(C)[C@@H](C(=O)NCc3ccc4ccccc4c3)CCC(=O)N(C)CC(=O)N2C1

1. 42
2. 77
3. 4

====

Procedure Summary: Pharmacokinetic study after single i.v. and p.o. administration in male SD rats
Assay type: in vivo
Assay Context: male, SD, plasma; rat, iv, 1 mg/kg; read-out: T1/2 (terminal) (converted)
Description: 5. Pharmacokinetic Study (PK) Analysis Pharmacokinetic analyses after single intravenous (i.v.) and two different peroral (p.o.) administrations were performed for the test compounds. […] Reconstituted samples were analysed by HPLC/MSMS on a reverse phase analytical column (BEH C18, 100×2.1 mm, 1.7 μm, Waters). […] In case of i.v. administration the initial concentration at tzero was determined by extrapolation of the curve through the first two time points. […]
Exercise: for every item that follows, state its recorded half-life.
Give bare numbers, in h.

Guide cases for half-life, answers given:
• CN1CCC[C@H](N)C(=O)N2C[C@@H](Oc3ccccc3)C[C@H]2COc2cccc(c2)C1=O = 2.11
• CN1CCC[C@H](NC(=O)CC(C)(C)C)C(=O)N2C[C@@H](O)C[C@H]2COc2cccc(c2)C1=O = 1.7

Can you share its half-life? I mean this molecule: "CN1CCC[C@H](N)C(=O)N2C[C@@H](OCc3ccccc3)C[C@H]2COc2cccc(c2)C1=O" 1.67

====

Procedure Summary: in vitro
Assay type: in vitro ADME, human
Assay Context: human, plasma, 4 h, 10 µM
Property Name: Plasma Stability 240 min hum [% remain.] (% remain.)
Numbers only, in % remain..

Guide cases for Plasma Stability 240 min hum [% remain.], answers given:
- CO[C@H]1C[C@H]2COc3cccc(c3)C(=O)N(C)CCC[C@H](NC(=O)CC(C)(C)C)C(=O)N2C1: 85
- CC(=O)N1CCN([C@H]2CCCN(C)C(=O)c3cccc(c3)OC[C@@H]3C[C@H](O)CN3C2=O)CC1: 100
- CN1CC(=O)N2C[C@@H](N)C[C@H]2COc2ccc(F)cc2C(=O)N(C)[C@@H](C(=O)NCc2ccc3ccccc3c2)CCC1=O: 96
- CN1CC(=O)N2C[C@H](NC(=O)CCC(=O)O)C[C@H]2COc2ccc(cc2)C(=O)N(C)[C@H](C(=O)NCc2ccncc2)CCC1=O: 75
- CN(C)CC(=O)N[C@H]1C[C@H]2COc3ccc(F)cc3C(=O)N(C)[C@H](C(=O)NCCc3c[nH]c4ccccc34)CCC(=O)N(C)CC(=O)N2C1: 95

// batch mode: one Plasma Stability 240 min hum [% remain.] value per listed entry
1. CN1CCC[C@H](NC(=O)Cc2cccc3ccccc23)C(=O)N2C[C@@H](NC(=O)Nc3cccc(N(C)C)c3)C[C@H]2COc2cccc(c2)C1=O
2. CN(C)CCNC(=O)[C@H]1CCC(=O)N(C)CC(=O)N2CCN(C(=O)Cc3ccc4ccccc4c3)C[C@@H]2COc2ccc(F)cc2C(=O)N1C
3. CC(=O)N[C@H]1CN(C)C(=O)c2cccc(c2)OC[C@@H]2C[C@H](NC(=O)CN(C)C)CN2C(=O)CN(C)C1=O

1. 86
2. 89
3. 98

====

Procedure Summary: Metabolic stability assay, CD-1 mouse microsomes
Format: in vitro ADME
Assay Context: both sexes, CD-1, mouse, microsomes
Property Name: half-life at 10 µM (min)
One number for each entry, in min.

* CN1CC(=O)N2CC(NC(=O)Cc3cccc4ccccc34)CC2COc2ccc(F)cc2C(=O)N(C)C(C(=O)NCCNc2ccccn2)CCC1=O (stereo not drawn) | 17
* CCCCCCCCCC(=O)N[C@H]1C[C@H]2COc3ccc(F)cc3C(=O)N(C)[C@@H](C(=O)NCc3ccc4ccccc4c3)CCC(=O)N(C)CC(=O)N2C1 | 42

Can you share its half-life at 10 µM? I mean this molecule: CN1CCC(NC(=O)OCc2ccccc2)C(=O)N2CC(NC(=O)Cc3ccc4ccccc4c3)CC2COc2cccc(c2)C1=O (stereo not drawn) 26
